Every entry's value here was drawn from ChEMBL document CHEMBL5058577.

System: U2OS
Assay: Multiplex assay against U2OS
Type: toxicity, cell-based
Settings: human, 24 h, 10 µM, compound concentration 10 uM, replicate 2
Parameter Population Membrane Permeable-Phenotype (%): see the listing below.

compound=S=C(NCCCc1c[nH]cn1)NCCCN(Cc1ccc(Cl)c(Cl)c1)c1ccc(Br)cn1 assayvalue=77%
compound=O=C(Nc1cc(-c2ccccc2)nn1-c1ccccc1F)c1ccc([N+](=O)[O-])cc1 assayvalue=11%
compound="COc1cc(Nc2ncc3c(n2)-c2ccc(Cl)cc2C(c2c(F)cccc2OC)=NC3)ccc1C(=O)O [ALISERTIB]" assayvalue=9%
compound=CN(C)C(=O)Cn1cc(-c2ccc(-c3nnc4ccccn34)cc2)cn1 assayvalue=7%
compound="C=CCN1C[C@H](C(=O)N(CCCN(C)C)C(=O)NCC)C[C@@H]2c3cccc4[nH]cc(c34)C[C@H]21 [CABERGOLINE]" assayvalue=13%

Using known records, supply Population Membrane Permeable-Phenotype (%) for CN(C)C/C=C/C(=O)Nc1ccc(C(=O)N2CCCC(Nc3ncc(Cl)c(-c4c[nH]c5ccccc45)n3)C2)cc1 (centres undefined)
21%

Using known records, supply Population Membrane Permeable-Phenotype (%) for CSc1nc(NC2CCCC2)c([N+](=O)[O-])c(NC2CCCC2)n1 [GS-39783]
9%

Using known records, supply Population Membrane Permeable-Phenotype (%) for C[C@@H]1CC(=O)Nc2cccc(-c3ccc4c(c3)c(-c3cnn(C)c3)nn4C)c2N1
6%

Using known records, supply Population Membrane Permeable-Phenotype (%) for CC(C)(O)C(=O)N1CCN(c2ccc(C(F)(F)F)c(C3=C(c4c[nH]c5ccccc45)C(=O)NC3=O)c2)CC1
15%

====

System: Fibroblast
Test: Multiplex assay against human fibroblast
Format: toxicity, cell-based
Settings: 48 h, 1 µM, compound concentration 1 uM, replicate 1
readout: Population Fragmented Nuclei (%)
Give the number; % is assumed, so skip it.

recordsmiles=Cc1cc(-c2ccc3c(c2)CC[C@H]3N2CC3(CCN(C(=O)Cc4cn5cc(C)sc5n4)CC3)C2)ncn1 assayvalue=30
recordsmiles=O=C(Nc1cc(-c2ccccc2)nn1-c1ccccc1F)c1ccc([N+](=O)[O-])cc1 assayvalue=23
recordsmiles=Cc1cc(NC(=O)NCCN2CCC(O)(Cc3ccccc3)CC2)c2ccccc2n1 assayvalue=16
recordsmiles=Cc1nn(C)c2nc(NNC(=O)Nc3cc(Cl)nc(Cl)c3)cc(C(C)C)c12 assayvalue=18

Using known records, supply Population Fragmented Nuclei (%) for Nc1nc(-c2ccco2)c2cnn(Cc3ccccc3F)c2n1
16

====

System: U2OS
Assay: Multiplex assay against U2OS
Format: toxicity, cell-based
Conditions: human, 48 h, 10 µM, compound concentration 10 uM, replicate 2
readout: Population Hoechst High Intensity Objects (%)
Give the number; % is assumed, so skip it.

recordsmiles=COc1ccc2[nH]c(I)c(CCNC(C)=O)c2c1 targetentity=U2OS assayvalue=0
recordsmiles=CN1CCN(c2ccc(Nc3c4ccccc4nc4ccccc34)cc2)CC1.Cl.Cl.O targetentity=U2OS assayvalue=15
recordsmiles=OCCCNc1cc(-c2ccnc(Nc3cccc(Cl)c3)n2)ccn1 targetentity=U2OS assayvalue=23
recordsmiles=Cc1nn(C)c2nc(NNC(=O)Nc3cc(Cl)nc(Cl)c3)cc(C(C)C)c12 targetentity=U2OS assayvalue=6

Switching to the query record.
Using known records, supply Population Hoechst High Intensity Objects (%) for Cc1cc(O)c(-c2ccc([C@@H](C)CN(C)C)cc2)c2c1[nH]c(=O)c1sccc12
15
